Experiment: Human HepG2 cell viability assay in 384 well format
Assay type: toxicity, cell-based
Parameters: dose 125 nL, time 70.5 hour; concentration not given beside the values
Details: HepG2 cells, read-out: Inhibition
I'd appreciate it if you could supply cytotoxicity at 70.5 h values for the items below.
Give bare numbers, in %.

Solved cases (5 shown):
{"MOLECULE": "OC1(CN2CCCC2)COCCN(c2nccs2)C1 (stereo unspecified)", "U": "%", "cytotoxicity at 70.5 h": 37.8}
{"MOLECULE": "CC1CCN(CCNC(=O)Nc2ccc(F)cc2Cl)CC1", "U": "%", "cytotoxicity at 70.5 h": 9.06}
{"MOLECULE": "O=C(c1ncccn1)N1C[C@H]2CCC[C@@]2(COCc2ccncc2)C1", "U": "%", "cytotoxicity at 70.5 h": 9.21}
{"MOLECULE": "Cc1cc(CN(C)C(=O)NC(C)Cc2ccc(O)cc2)no1 (stereo unspecified)", "U": "%", "cytotoxicity at 70.5 h": 0.825}
{"MOLECULE": "COc1ccccc1NC(=O)NCc1nnc(SC)n1C", "U": "%", "cytotoxicity at 70.5 h": -5.92}

Quick one: give me cytotoxicity at 70.5 h for each item below, same order please.
1. CCCN1CCN(C(=O)c2cnn(-c3ccccc3F)c2)CC1
2. O=C(O)[C@@H]1CN(C(=O)c2cc(C3CC3)n[nH]2)C[C@H]1c1cccc(F)c1
3. Oc1cccc(-c2cc(C3CCN(Cc4cncnc4)C3)ccn2)c1 (stereo unspecified)
4. CCOC(=O)[C@@H]1[C@@H](O)C(=O)N(C)C12CCN(C(=O)c1ccco1)CC2
5. CCSCc1ccc(C(=O)N2CCCN(CC)CC2)cc1

Result:
[8.36, -9.94, -3.45, -4.06, -10.3]

Quick one: give me cytotoxicity at 70.5 h for each item below, same order please.
1. CNc1nc2ncc(Cl)cc2cc1C#N
2. N#Cc1c(Cl)nsc1NCC1(c2ccccc2)CCC1
3. Cc1c[nH]cc1C(=O)N1CCN(Cc2nc(C(C)C)no2)CC1
4. OC[C@@H]1CN2CCN(c3ccccn3)C[C@@H]2[C@H]1c1ccccc1
5. COc1ccc(-c2nc(C)cc(SCC(N)=O)n2)cc1

Result:
[-2.12, 17.1, -15.1, -7.31, -2.23]

Ask: What does the data say about its cytotoxicity at 70.5 h? Entry: CC(c1ccccc1)N(C)C(=O)Cn1cc(NC(=O)C(C)(C)C)cn1 (stereo unspecified)
Result: -3.77
